Assay: TOR pathway GLN3 branch reporter MEP2-GFP changes – S. cerevisiae, multiplex flow cytometry, primary screen (AID 1867);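 also: median GFP channel fluorescence of barcode-gated MEP2-GFP cells measured by flow cytometry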
Conditions: S. cerevisiae MEP2-GFP strain, 3 h, at 10 µM, stronger effect = higher value, 100% means same as DMSO wells
Records with an inconclusive call do not appear.
readout-type: GFP response vs DMSO (%)
Answer in %, number only, no unit symbol.

Below, 2 molecules whose answers are already recorded.
[
  {
    "molecular-string": "Cc1ccc2c(ccc(=S)n2C)c1",
    "GFP response vs DMSO / %": 97.2
  },
  {
    "molecular-string": "CC(=O)Nc1c(I)c(NC(C)=O)c(I)c(C(=O)O)c1I",
    "GFP response vs DMSO / %": 123
  }
]

The value of GFP response vs DMSO measured for the molecule "COc1ccc(-c2[nH]ncc2CN(CCO)Cc2cccs2)c(F)c1" turned out to be 105

----------
Tested on: anti-desmoglein-3 scFv antibody binding to human DSG3
Experiment: blockers of pathogenic pemphigus antibody–desmoglein-3 binding – biochemical, validation compound set, bead-based, flow cytometry, pilot screen (AID 588368);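 also: signal is the median channel fluorescence of bead-bound GFP antibody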
Settings: Protein G beads, DSG3-Fc, scFv-GFP binding, at 10 µM, stronger effect = lower value
readout-type: binding (% of control) (%)
Number only, in %; omit the unit.

Below: 3 compounds and their reported binding (% of control).
[
  {
    "compound": "COc1cccc(CC2CC(=O)N(c3ccc4c(C)cc(=O)oc4c3)C2=O)c1 (configuration not stated)",
    "binding (% of control) [%]": 98.9
  },
  {
    "compound": "CCCC(CCC)C(=O)OC1C[C@H]2CC[C@@H](C1)[N+]2(C)C (some centres not stated)",
    "binding (% of control) [%]": 101
  },
  {
    "compound": "COc1ccc2c(C=O)cn(C)c2c1",
    "binding (% of control) [%]": 105
  }
]

Given item CC(=O)N(CCC(Cc1ccccc1)c1ccc2c(c1)OCO2)Cc1ccc(Cl)cc1 (configuration not stated) , the value recorded as its binding (% of control) is 104

Lab book: binding (% of control) of "O=C(NCCO)c1ccc2[nH]c3ccccc3c2c1" noted as 98.7

Lab book: binding (% of control) of "O=C(CSCc1ccccc1)NCCCN1CCOCC1" noted as 102

Query "CC(=O)N1c2ccccc2C(C)=CC1(C)C" yields binding (% of control) of 109

----------
Experiment: reduced mouse 2C T cell binding to pMHC/ICAM-1 vesicles – MLPCN validation set, flow cytometry, LFA-1/ICAM-1 modulator project, pilot screen (AID 2523)
Details: 2C mouse CD8+ T cells, at 7 µM, stronger effect = lower value; measured here: CD8+/vesicle+ event percentage
Label met when double positive events is strictly below 60%; otherwise label not met.

Recorded results for 3 molecules are shown here.
[
  {
    "molecule": "CC1=NN(c2ccccc2)C(=O)C1",
    "category-label": "not met"
  },
  {
    "molecule": "COC(=O)c1sccc1NC(=O)Nc1ccccc1F",
    "category-label": "not met"
  },
  {
    "molecule": "Cc1ccccc1C(=O)Nc1ccccc1C(=O)NCC(C)C",
    "category-label": "not met"
  }
]

Ask | Could you please tell me whether double positive events recorded for COc1ccc(C(=O)CC2OC(=O)c3c2ccc(OC)c3OC)cc1 (stereo not given) is less than 60%?
Reply | not met

Ask | Check if double positive events falls below 60% for "CC1(C)Cc2ccccc2-c2nc(-c3ccccc3)oc(=O)c21" .
Reply | not met

Ask | Given "CC(C)[C@H]1CN(C)CCN1Cc1cn(C)nc1-c1cccc(Cl)c1" , is recorded double positive events strictly lower than 60%?
Reply | met

Ask | Threshold test, double positive events < 60%: CCOC(=O)C1=C(C)NC(C)=C(C(=O)OC)C1c1cccc([N+](=O)[O-])c1 (stereo not given)
Reply | not met

Ask | Would you kindly verify if double positive events of "C#C[C@]1(O)CC[C@H]2[C@@H]3CCc4cc(O)ccc4[C@H]3CC[C@@]21C" is strictly less than 60%?
Reply | met

Ask | Please indicate whether the reported double positive events of "CC(=O)c1cccc(NC(=O)N[C@@H](CC(C)C)C(=O)O)c1" is strictly below 60%.
Reply | met

Ask | Strictly below 60%: is that where double positive events of O=C(c1ccc(Cl)cc1)C1CCCN(Cc2ccc(Oc3ncccn3)cc2)C1 (stereo not given) sits?
Reply | not met

Ask | Please indicate whether the reported double positive events of CC1(C)CC(NC(=O)C23CCC(C)(C(=O)C2=O)C3(C)C)CC(C)(C)N1 (stereo not given) is strictly below 60%.
Reply | not met

Ask | Here's an entry: "O=C(Nc1ccc(Cl)cn1)Nc1ccccc1Cl" . Is its double positive events below 60%?
Reply | not met

Ask | # check: double positive events < 60% for CC(C)OC(=O)C1C(=O)CC(C)(O)C(C(=O)OC(C)C)C1c1cccc(O)c1 (stereo not given)
Reply | met

Ask | Lab log: compare recorded double positive events with 60%; is it strictly lower for "COc1cccc(/C=C/C(=O)c2c(O)cc(C)oc2=O)c1O" ?
Reply | not met

----------
Experiment: cytosolic pH regulators acting via V-ATPase – S. cerevisiae, pHLuorin, HTS validation (AID 504600);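 also: plate controls were DMSO for no effect and reference compound for full effect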
Conditions: V-ATPase proton transport, at 10 µM, stronger effect = higher value
Below: a set of entries, each annotated with reported response.
Write the value in % as a bare number.

[
  {
    "compound": "O=C(N1CCCCC1)C1(c2ccccc2)CCOCC1",
    "response [%]": 0.45
  }
]

Summary for this compound, "O=C(O)CCCCCCNC(=O)c1cncc(O)c1" : response is -3.09

// sample "COc1cc2c(cc1OC)/C(=C/c1ccc(Cl)cc1)C(=O)OC2" , its response was -2.13

Recorded result, "C=CCNC(=O)c1ccc(-c2cccc([N+](=O)[O-])c2)o1" , response: -0.55

Input CN1CCCN=C1COC(=O)C(O)(c1ccccc1)C1CCCCC1 (stereo not drawn) . Output response: 4.32

The compound listed as "COc1ccc(O)c(C(=O)/C=C/c2cc3ccccc3o2)c1" shows response equal to 0.06

Reported response of "O=C(NCCc1c[nH]c2ccccc12)OCCSS(=O)(=O)O" : 3.36

What the record says about CCOC(=O)C1C(=O)OC2(CCOC(C)(C)C2)C1C(=O)OCC (stereo not drawn) : response is -6.07

In plain terms, "CC(C)(C)C(=O)NCCCNc1ccc([N+](=O)[O-])cc1" has a documented response of 1.78

Short answer for "CC1CCN(CCOCCOc2ccccc2Br)CC1" : response was -0.14

----------
Test: TOR pathway RTG branch CIT2 reporter changes – S. cerevisiae, GFP fusion, multiplex flow cytometry, primary screen (AID 1870);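 also: barcoded CIT2-GFP strain pooled with four other GFP strains with rapamycin as positive control; median GFP fluorescence per well over plate mean of DMSO wells so 100% = DMSO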
Settings: S. cerevisiae CIT2-GFP expression, 3 h, at 10 µM, stronger effect = higher value
Calls of active or inactive are those of the source.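 Rule for the calls: active = percent response above a set limit, the screen-wide mean plus 3 SD (cut at about 130% in these data); inactive = the rest.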
readout-type: percent response of DMSO control

The examples below pair each entry with its known result.
[
  {
    "compound": "Cc1oc2cc(O)cc(O)c2c(=O)c1-c1ccc2c(c1)OCCCO2",
    "percent response of DMSO control": "88.2% (inactive)"
  },
  {
    "compound": "O=C(Cc1ccccc1[N+](=O)[O-])NCc1ccncc1",
    "percent response of DMSO control": "101% (inactive)"
  },
  {
    "compound": "COc1cc2oc(-c3ccc(O)cc3)cc(=O)c2c(OC)c1O",
    "percent response of DMSO control": "104% (inactive)"
  },
  {
    "compound": "NC[C@H]1O[C@H](O[C@H]2[C@H](O)[C@@H](O[C@H]3O[C@H](CO)[C@@H](O)[C@H](N)[C@H]3O)[C@H](N)C[C@@H]2N)[C@H](N)C[C@@H]1O",
    "percent response of DMSO control": "95.1% (inactive)"
  }
]

The recorded percent response of DMSO control for entry "O=C(CCc1c[nH]c2ccccc12)NCc1ccco1" equals 93.8% (inactive)

What the record says about "CC(=O)Nc1ccc(S(=O)(=O)c2ccc(N)cc2)cc1" : percent response of DMSO control is 136% (active)

Record CN1CCN2c3ccccc3Cc3ccccc3C2C1 (stereo not given) . Reported percent response of DMSO control: 118% (inactive)

Given item "COc1ccc(/C=C\c2nc(=O)c3ccccc3o2)cc1" , the value recorded as its percent response of DMSO control is 101% (inactive)

// recorded percent response of DMSO control for "C#CCOc1ccc2c(C)cc(=O)oc2c1" : 107% (inactive)

Lab note: measured percent response of DMSO control of Cc1nc(C2CC(=O)OC23CCCCC3)cs1 (stereo not given) was 94.8% (inactive)

Sure, the documented percent response of DMSO control for "N#C/C(=C\c1ccc(O)c(O)c1)C(=O)NCCCc1ccccc1" is 98.3% (inactive)

"Cc1nc2c(c3c1[nH]c1ccccc13)C(=O)CC(C)(C)C2" yielded percent response of DMSO control of 86.3% (inactive)

In plain terms, "O=C(O)C1CCN(C(=O)COc2ccc3c4c(c(=O)oc3c2)CCC4)CC1" has a documented percent response of DMSO control of 101% (inactive)

Memo: "CC1(C)CC(=O)c2cn3c(nc2C1)nc1ccccc13" , reported percent response of DMSO control: 104% (inactive)

Record CN(C)CCC(c1ccc(Cl)cc1)c1ccccn1 (stereo not given) . Reported percent response of DMSO control: 108% (inactive)
